assay: CCTE_Shafer_MEA_dev_burst_rate: CCTE's Neural Network Formation Assay for Burst Rate, Shafer Lab (AID 2284042)
Active and inactive are the calls of the source. The calls were made as follows: active = hit-call score of the fitted dose curve at least 0.9, where 1 is the maximum; inactive = score below 0.9.
Field 'call' accepts T = active, F = inactive

Enquiry: In this assay, the call recorded for CCOC(=O)C(C)OC(=O)c1cc(Oc2ccc(C(F)(F)F)cc2Cl)ccc1[N+](=O)[O-] (configuration not stated) was what?
Return: F

Enquiry: Per the records of this test, what outcome belongs to CCSC(=O)N1CCCCCC1 ?
Return: F

Enquiry: // return assay outcome for COP(=S)(OC)SCn1nnc2ccccc2c1=O
Return: F

Enquiry: Status in this test for COC(=O)N(C(=O)N1CO[C@@]2(C(=O)OC)Cc3cc(Cl)ccc3C2=N1)c1ccc(OC(F)(F)F)cc1 ?
Return: F

Enquiry: Give the logged outcome of this assay for the following compound: CCOP(=O)(OCC)Oc1nc(Cl)c(Cl)cc1Cl
Return: F

Enquiry: Which outcome was entered for the compound C=C(C)CN(CC)c1c([N+](=O)[O-])cc(C(F)(F)F)cc1[N+](=O)[O-] in this test?
Return: T

Enquiry: Returns: the outcome recorded for COP(=O)(OC)O/C(C)=C/C(=O)N(C)C in this assay.
Return: F

###

read-out: Human Leukocyte Antigen - DR isotype (HLADR), HLA-DRA (gene 3122); test: BSK_BE3C_HLADR: BioMAP Diversity Plus: BE3C Assay for Human Leukocyte Antigen - DR isotype (HLADR) Biomarker Activity (AID 2283032); settings: primary human bronchial epithelial cells; actives raise or lower the signal
Calls of active or inactive are those of the source. Rule for the calls: active = hit-call score of the fitted dose curve at least 0.9, where 1 is the maximum; inactive = score below 0.9.
Return exactly one item of active, inactive

Enquiry: Kindly provide the recorded test outcome for the following compound: CCNC(=O)NC(=O)C(C#N)=NOC
Return: inactive

Enquiry: // return assay outcome for N#CN=C1SCCN1Cc1ccc(Cl)nc1
Return: inactive

Enquiry: Dear all, I need the recorded test outcome for Cn1c(-c2ccccc2)cc(-c2ccccc2)[n+]1C , thank you.
Return: active

Enquiry: Fill in: this test's call for Nc1c(Cl)c(Cl)nc(C(=O)O)c1Cl is ___
Return: inactive

Enquiry: So what was the verdict on CC(C)NC(=O)N1CC(=O)N(c2cc(Cl)cc(Cl)c2)C1=O in this test?
Return: inactive

Enquiry: Assay result, entry CCOc1nc(C(Cl)(Cl)Cl)ns1 — outcome?
Return: inactive

Enquiry: Outcome? CC(C)(C)C(=O)C(Oc1ccc(Cl)cc1)n1cncn1 (stereo unspecified)
Return: inactive

Enquiry: For this compound, state the assay outcome: CCOP(=O)(OCC)Oc1nc(Cl)c(Cl)cc1Cl
Return: inactive

Enquiry: Hi, do you know how Cc1cnc(C2=NC(C)(C(C)C)C(=O)N2)c(C(=O)O)c1 (stereo unspecified) came out in this test?
Return: inactive

Enquiry: Identify the outcome logged in this assay for the compound shown: CO/N=C(/C1=NOCCO1)c1ccccc1Oc1ncnc(Oc2ccccc2Cl)c1F
Return: active

Enquiry: Would you mind telling me which call this test gave CCCC(=NOCC)C1=C(O)CC(CC(C)SCC)CC1=O (stereo unspecified) ?
Return: inactive

Enquiry: Could you kindly confirm the outcome this assay logged for CC1(C)C(C(=O)OC(C#N)c2cccc(Oc3ccccc3)c2)C1(C)C (stereo unspecified) ?
Return: inactive

Enquiry: Recorded call for COC(=O)NC(=S)Nc1ccccc1NC(=S)NC(=O)OC ?
Return: inactive

Enquiry: Returns: the outcome recorded for Cc1c(COC(=O)[C@@H]2[C@H](/C=C(\Cl)C(F)(F)F)C2(C)C)cccc1-c1ccccc1 in this assay.
Return: inactive

Enquiry: Hi, do you know how CCN(CC)C(=O)C(C)Oc1cccc2ccccc12 (stereo unspecified) came out in this test?
Return: inactive

Enquiry: What did this assay record as the result for CCN(CC)c1nc(C)cc(OP(=S)(OC)OC)n1 ?
Return: active

Enquiry: Given CN/C(=N\[N+](=O)[O-])NCc1cnc(Cl)s1 , state the outcome it received in this test.
Return: inactive

Enquiry: // param item: CC1(C)CCC(=Cc2ccc(Cl)cc2)C1(O)Cn1cncn1 (stereo unspecified) ; yields the recorded call
Return: inactive

Enquiry: In this assay, the call recorded for Cc1cc(C)nc(Nc2ccccc2)n1 was what?
Return: inactive

Enquiry: What is the recorded call for this compound in the test? CN=C=S
Return: inactive

Enquiry: Called result for CC(C)=CC1C(C(=O)OCc2coc(Cc3ccccc3)c2)C1(C)C (stereo unspecified)
Return: inactive

Enquiry: What is the recorded call for this compound in the test? CCOP(=S)(OCC)Oc1nc(Cl)n(C(C)C)n1
Return: inactive

Enquiry: Write down the call the test reported for this compound. Item: O=C(Nc1ccccc1-c1ccc(Cl)cc1)c1cccnc1Cl
Return: active

Enquiry: Tell me the recorded outcome of this test for O=C1C2CC=CCC2C(=O)N1SC(Cl)(Cl)Cl (stereo unspecified) .
Return: active

Enquiry: Per the assay record, what outcome was assigned to COc1cc(OC)nc(NC(=O)NS(=O)(=O)c2ncccc2OCC(F)(F)F)n1 ?
Return: inactive

Enquiry: Hi team, can someone confirm the assay call for COc1ccc(-c2ccccc2)cc1NNC(=O)OC(C)C ?
Return: inactive

Enquiry: Per the records of this test, what outcome belongs to C=C(C)CN(CC)c1c([N+](=O)[O-])cc(C(F)(F)F)cc1[N+](=O)[O-] ?
Return: inactive

Enquiry: Short answer needed: outcome of this test for CCSC(=O)N1CCCCCC1 ?
Return: inactive

Enquiry: Field: outcome | Entry: N#Cc1c[nH]cc1-c1cccc2c1OC(F)(F)O2
Return: inactive

Enquiry: What did the test return for N#Cc1c(Cl)cccc1Cl ?
Return: inactive

Enquiry: Status in this test for CC1(C)C(C=C(Cl)Cl)C1C(=O)OC(C#N)c1cccc(Oc2ccccc2)c1 (stereo unspecified) ?
Return: inactive

Enquiry: Which outcome was assigned to CCCCC(C#N)(Cn1cncn1)c1ccc(Cl)cc1 (stereo unspecified) in this test?
Return: inactive

Enquiry: Can you look up the reported call for CC(C)Nc1nc(Cl)nc(NC(C)C)n1 for me?
Return: inactive

Enquiry: Call for entry Clc1nc(Cl)nc(Nc2ccccc2Cl)n1 :
Return: inactive

Enquiry: // outcome(item) with item = CCOc1nc(F)cc2nc(S(=O)(=O)Nc3c(Cl)cccc3Cl)nn12
Return: active

Enquiry: Call for entry COP(=S)(OC)SCn1nnc2ccccc2c1=O :
Return: inactive

###

read-out: Nuclear factor NF-kappa-B p105 subunit (Homo sapiens); experiment: LTEA_HepaRG_NFKB1: Life Technologies and Expression Analysis (LTEA) Assay for Nuclear Factor Kappa B Subunit 1 (NFKB1) using HepaRG (AID 2283521); conditions: mRNA level, 48 h; actives raise or lower the signal
Calls of active or inactive are those of the source. Rule for the calls: active = hit-call score of the fitted dose curve at least 0.9, where 1 is the maximum; inactive = score below 0.9.
One label from this list, please: label 1 = active, label 0 = inactive

Enquiry: Query: recorded result category for COc1ccc(-c2ccccc2)cc1NNC(=O)OC(C)C in this test
Return: label 0

Enquiry: I would be grateful if you could indicate the recorded call for O=C(O)c1c(Cl)ccc2cc(Cl)cnc12 .
Return: label 0

Enquiry: Returns: the outcome recorded for CC(C)=CC1C(C(=O)OCc2coc(Cc3ccccc3)c2)C1(C)C (configuration not stated) in this assay.
Return: label 0

Enquiry: Outcome logged for CCCN(CC)CC1COC2(CCC(C(C)(C)C)CC2)O1 (configuration not stated) in this assay:
Return: label 0

Enquiry: State the result this test recorded for CC(C)N1C(=O)N(c2ccccc2)CSC1=NC(C)(C)C .
Return: label 0

Enquiry: Each molecule tested received a call. Report the one for CO/N=C(/C1=NOCCO1)c1ccccc1Oc1ncnc(Oc2ccccc2Cl)c1F .
Return: label 0

Enquiry: Hey, what did the test say about Nc1cnn(-c2ccccc2)c(=O)c1Cl ?
Return: label 0

Enquiry: Any idea what this test logged for CC1(C)C(C=C(Cl)Cl)C1C(=O)OC(C#N)c1cccc(Oc2ccccc2)c1 (configuration not stated) ?
Return: label 0

Enquiry: Test call, this molecule: O=C1C2CC=CCC2C(=O)N1SC(Cl)(Cl)Cl (configuration not stated)
Return: label 0

Enquiry: Which outcome was entered for the molecule Nc1c(Cl)c(F)nc(OCC(=O)O)c1Cl in this test?
Return: label 0

Enquiry: Any idea what this test logged for CCSC(=O)N1CCCCCC1 ?
Return: label 1

Enquiry: Recorded test call requested for N#Cc1c[nH]cc1-c1cccc2c1OC(F)(F)O2
Return: label 0

Enquiry: Check the results log: what was the call for CCOc1nc(F)cc2nc(S(=O)(=O)Nc3c(Cl)cccc3Cl)nn12 ?
Return: label 0

Enquiry: Name the outcome recorded for COc1cc(Cl)c(OC)cc1Cl in the assay.
Return: label 0

Enquiry: Which result was noted for this molecule in the test: Nc1c(Cl)c(Cl)nc(C(=O)O)c1Cl
Return: label 0

Enquiry: Check the results log: what was the call for CC(C)N1C(=O)c2ccccc2NS1(=O)=O ?
Return: label 0

Enquiry: Fill in: this test's call for COC(=O)NS(=O)(=O)c1ccc(N)cc1 is ___
Return: label 0

Enquiry: Record request — test call for COc1cc(OC)nc(NC(=O)NS(=O)(=O)c2ncccc2OCC(F)(F)F)n1
Return: label 0

Enquiry: Which result was noted for this molecule in the test: CCOC(=O)C(C)OC(=O)c1cc(Oc2ccc(C(F)(F)F)cc2Cl)ccc1[N+](=O)[O-] (configuration not stated)
Return: label 0

Enquiry: Recorded call for COC(=O)c1c(C(F)F)nc(C(F)(F)F)c(C2=NCCS2)c1CC(C)C ?
Return: label 0

Enquiry: Hey, what did the test say about N#CN=C1SCCN1Cc1ccc(Cl)nc1 ?
Return: label 0

Enquiry: Please let me know the test result on file for CCOP(=S)(OCC)Oc1nc(Cl)n(C(C)C)n1 .
Return: label 0
